Origin of values: the Deep4Chem optical property database

Each entry below carries its recorded emission maximum.
experimental details: solvent given as SMILES
reported conditions: in CC(C)CO

{"molecule": "COCCOCCOCCOc1ccc(OCCOCCOCCOC)c(C=O)c1", "emission maximum": "453 nm"}
{"molecule": "Oc1cccc(/N=C/c2ccccc2Oc2ccccc2)c1", "emission maximum": "387 nm"}
{"molecule": "Nc1ccc(/C=C2\\OC(=O)c3ccccc32)cc1", "emission maximum": "547.65 nm"}
{"molecule": "COCCOc1ccc(OCCOC)c(C=O)c1", "emission maximum": "451 nm"}
{"molecule": "COC(=O)C(Cc1ccc2oc(-c3ccc(Nc4ccccc4)cc3)nc2c1)NC(=O)OC(C)(C)C (stereo unspecified)", "emission maximum": "438 nm"}
{"molecule": "CN(C)c1ccc(/C=C2\\OC(=O)c3cc(N)ccc32)cc1", "emission maximum": "542.89 nm"}

---

experimental details: solvent given as SMILES
reported conditions: in CC(C)=O
endpoint name: emission maximum

{"molecule": "COC(=O)C(Cc1ccc2oc(-c3ccc(Nc4ccccc4)cc3)nc2c1)NC(=O)OC(C)(C)C (stereo not drawn)", "endpoint name": "emission maximum", "result": "439.5 nm"}
{"molecule": "CCN(CC)c1ccc2nc3c4ccccc4c(=O)cc-3oc2c1", "endpoint name": "emission maximum", "result": "614 nm"}
{"molecule": "N#CC(C#N)=C(/C=C/c1cc2c3c(c1)CCCN3CCC2)c1ccc2c3c(cccc13)CC2", "endpoint name": "emission maximum", "result": "619 nm"}

---

experimental details: solvent given as SMILES
reported conditions: in CO
// values below are reported emission maximum

{"smiles": "COc1ccc(-n2c3ccccc3c3cc(/C=C/C(=C(C#N)C#N)c4ccccc4)ccc32)cc1", "emission maximum [nm]": 597}
{"smiles": "COc1ccc(-c2nc(-c3ccc(C#N)cc3)[nH]c2-c2ccc(OC)cc2)cc1", "emission maximum [nm]": 473}
{"smiles": "COc1ccc(N2c3cc(OC)ccc3N=c3cc4c(cc32)=Nc2cc(C(C)(C)C)cc(C(C)(C)C)c2O4)cc1", "emission maximum [nm]": 633}
{"smiles": "CC1=CC(/C=C/c2ccc(OCCCN=[N+]=[N-])cc2)=[N+]2C1=C(c1ccc(N3CCCCC3)cc1)c1c(C)cc(C)n1[B-]2(F)F", "emission maximum [nm]": 586}
{"smiles": "Nc1ccc(-c2ccc(N)cc2)cc1", "emission maximum [nm]": 397}
{"smiles": "CCN(CC)c1cccc2c1ccc1c(=O)oc(-c3ccc(C(F)(F)F)cc3)cc12", "emission maximum [nm]": 604}
{"smiles": "C(=C\\c1nc2ccccc2s1)/c1ccccc1", "emission maximum [nm]": 400}
{"smiles": "CCCCC[n+]1ccc(/C=C/c2ccc(N(C)C)c3ccccc23)c2ccccc21", "emission maximum [nm]": 708}
{"smiles": "CCOC(=O)C1=CN(c2ccccc2)C=C(C(=O)OCC)C1", "emission maximum [nm]": 441}
{"smiles": "CC(=O)Nc1ccc2c3c(cccc13)C(=O)c1ccccc1-2", "emission maximum [nm]": 573.07}
{"smiles": "O=C1c2ccccc2NCN1Cc1ccccc1", "emission maximum [nm]": 443}

---

experimental details: solvent given as SMILES
reported conditions: in CCCCCC
endpoint name: emission maximum (nm)

{"molecule": "Cc1ccc2ccc3cccc4ccc1c2c34", "endpoint name": "emission maximum", "numeric value": 377}
{"molecule": "CCC1=C(C)C2=C(c3c4ccccc4cc4ccccc34)c3c(C)c(CC)c(C)n3[B-](F)(F)[N+]2=C1C", "endpoint name": "emission maximum", "numeric value": 539}
{"molecule": "CC(C)(C)c1ccc(N(c2ccc(C(C)(C)C)cc2)c2ccc3c(N(c4ccc(C(C)(C)C)cc4)c4ccc(C(C)(C)C)cc4)cc4c5cc(N(c6ccc(C(C)(C)C)cc6)c6ccc(C(C)(C)C)cc6)ccc5c(N(c5ccc(C(C)(C)C)cc5)c5ccc(C(C)(C)C)cc5)cc4c3c2)cc1", "endpoint name": "emission maximum", "numeric value": 456}
{"molecule": "COc1ccc(-c2c3ccccc3c3n2[B-](F)(F)[N+]2=Cc4c5ccccc5c(-c5ccc(OC)cc5)n4[B-](F)(F)[N+]2=C3)cc1", "endpoint name": "emission maximum", "numeric value": 607}
{"molecule": "CCN(CC)c1cccc2c1ccc1c(=O)oc(-c3ccc(C(F)(F)F)cc3)cc12", "endpoint name": "emission maximum", "numeric value": 469}
{"molecule": "CCC1=C(C)C2=Cc3c4ccccc4c4n3[B-](c3ccc(OC)cc3)(Oc3ccccc3-4)[N+]2=C1C (stereo not drawn)", "endpoint name": "emission maximum", "numeric value": 635}
{"molecule": "COC(=O)c1c(C(=O)OC)c2ccc(C)nn2c1C", "endpoint name": "emission maximum", "numeric value": 449}
{"molecule": "COc1ccc2cc(-c3ccc(C(F)(F)F)cc3)oc(=O)c2c1", "endpoint name": "emission maximum", "numeric value": 397}
